System: SF-539
Experiment: Antiproliferative activity against human SF539 cells after 96 hrs by WST-1 assay
Assay type: functional
Settings: SF-539, 96 h
Reported property: GI50 (nM)
Numeric answer only, unit nM assumed.

Give recorded GI50. `COc1cc2c(cc1OS(N)(=O)=O)CC[C@@H]1[C@@H]2CC[C@]2(C)[C@@H](NS(C)(=O)=O)CC[C@@H]12`
3200

Give recorded GI50. `CCc1cc2c(cc1OS(N)(=O)=O)CC[C@@H]1[C@@H]2CC[C@]2(C)[C@@H](NS(C)(=O)=O)CC[C@@H]12`
470

Give recorded GI50. `COc1cc2c(cc1O)CC[C@@H]1[C@@H]2CC[C@]2(C)[C@@H](O)CC[C@@H]12`
320

Give recorded GI50. `COc1cc2c(cc1OS(N)(=O)=O)CC[C@@H]1[C@@H]2CC[C@]2(C)[C@@H](OS(N)(=O)=O)CC[C@@H]12`
36

Give recorded GI50. `CCc1cc2c(cc1OS(N)(=O)=O)CC[C@@H]1[C@@H]2CC[C@]2(C)[C@@H](CN(C)C)CC[C@@H]12`
12600

Give recorded GI50. `COc1cc2c(cc1OCc1ccccc1)CC[C@@H]1[C@@H]2CC[C@]2(C)[C@@H](OS(C)(=O)=O)CC[C@@H]12`
4600

Give recorded GI50. `CCc1cc2c(cc1O)CC[C@@H]1[C@@H]2CC[C@]2(C)[C@@H](CN(C)C)CC[C@@H]12`
16200

Give recorded GI50. `COc1cc2c(cc1OS(N)(=O)=O)CC[C@@H]1[C@@H]2CC[C@]2(C)[C@@H](OS(C)(=O)=O)CC[C@@H]12`
340

Give recorded GI50. `CCc1cc2c(cc1OS(N)(=O)=O)CC[C@@H]1[C@@H]2CC[C@]2(C)[C@@H](C[N+](=O)[O-])CC[C@@H]12`
21

Where do the numbers come from? From ChEMBL document CHEMBL1156957.
